In this section, each of the molecules is paired with its reported pKd.
# tested-system: human Siglec-2/CD22 protein (Homo sapiens)
# Sequence (P20273 20-847): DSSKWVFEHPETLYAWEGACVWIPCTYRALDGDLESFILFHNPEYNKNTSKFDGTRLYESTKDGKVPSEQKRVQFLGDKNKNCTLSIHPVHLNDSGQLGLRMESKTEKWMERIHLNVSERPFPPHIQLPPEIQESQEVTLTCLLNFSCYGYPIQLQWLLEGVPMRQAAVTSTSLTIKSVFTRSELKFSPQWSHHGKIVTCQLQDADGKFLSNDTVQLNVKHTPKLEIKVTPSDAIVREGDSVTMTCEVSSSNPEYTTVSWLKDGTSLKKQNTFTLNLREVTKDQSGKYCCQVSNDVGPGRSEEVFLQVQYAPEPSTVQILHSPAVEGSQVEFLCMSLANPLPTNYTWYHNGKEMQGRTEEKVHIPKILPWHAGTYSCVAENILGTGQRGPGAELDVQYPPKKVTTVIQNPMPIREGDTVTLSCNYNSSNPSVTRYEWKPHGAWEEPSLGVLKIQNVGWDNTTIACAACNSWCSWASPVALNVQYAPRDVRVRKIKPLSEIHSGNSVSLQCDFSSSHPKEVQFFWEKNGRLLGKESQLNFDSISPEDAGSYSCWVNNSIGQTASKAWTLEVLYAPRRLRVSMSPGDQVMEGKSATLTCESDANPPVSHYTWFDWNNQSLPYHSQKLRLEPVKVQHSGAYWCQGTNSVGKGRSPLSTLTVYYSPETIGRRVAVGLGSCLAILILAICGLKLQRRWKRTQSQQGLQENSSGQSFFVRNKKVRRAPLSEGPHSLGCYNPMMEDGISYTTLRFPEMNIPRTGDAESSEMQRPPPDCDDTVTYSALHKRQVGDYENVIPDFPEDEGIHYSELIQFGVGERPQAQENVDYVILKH
# procedure-text: SPR binding affinity to human CD22
# measurement-conditions: steady-state analysis
pKd: −log10 of the molar value.

Answered examples (4):
1. CC(=O)NCCOCCOCCOCCOCCNC(=O)CCCCCCO[C@]1(C(=O)O)C[C@H](O)[C@@H](NC(=O)CO)[C@H]([C@H](O)[C@H](O)CNC(=O)Cc2ccc(C(F)F)cc2)O1
> 6.00
2. C#CCOCCCCCCO[C@]1(C(=O)O)C[C@H](O)[C@@H](NC(=O)CO)[C@H]([C@H](O)[C@H](O)CNC(=O)Cc2ccc(Cl)cc2)O1
> 6.00
3. C#CCNc1c(NCCCCCCO[C@]2(C(=O)O)C[C@H](O)[C@@H](NC(=O)CO)[C@H]([C@H](O)[C@H](O)CNC(=O)Cc3ccc(Cl)cc3)O2)c(=O)c1=O
> 6.00
4. C#CCOCCOCCO[C@]1(C(=O)O)C[C@H](O)[C@@H](NC(=O)CO)[C@H]([C@H](O)[C@H](O)CNC(=O)Cc2ccc(F)c(C(F)(F)F)c2)O1
5.00 to 6.00

Next molecule, pKd to be filled in.
Please look up its pKd: C#CCN(CC(=O)O)C(=O)CCCO[C@]1(C(=O)O)C[C@H](O)[C@@H](NC(=O)CO)[C@H]([C@H](O)[C@H](O)CNC(=O)Cc2ccc(Cl)cc2)O1
5.00 to 6.00

----------
In this section, each of the compounds is paired with its reported Kd.
# tested-system: mouse Siglec-2-Fc-Avi (CD22) (Mus musculus)
# Sequence (P35329 22-708 limits assumed): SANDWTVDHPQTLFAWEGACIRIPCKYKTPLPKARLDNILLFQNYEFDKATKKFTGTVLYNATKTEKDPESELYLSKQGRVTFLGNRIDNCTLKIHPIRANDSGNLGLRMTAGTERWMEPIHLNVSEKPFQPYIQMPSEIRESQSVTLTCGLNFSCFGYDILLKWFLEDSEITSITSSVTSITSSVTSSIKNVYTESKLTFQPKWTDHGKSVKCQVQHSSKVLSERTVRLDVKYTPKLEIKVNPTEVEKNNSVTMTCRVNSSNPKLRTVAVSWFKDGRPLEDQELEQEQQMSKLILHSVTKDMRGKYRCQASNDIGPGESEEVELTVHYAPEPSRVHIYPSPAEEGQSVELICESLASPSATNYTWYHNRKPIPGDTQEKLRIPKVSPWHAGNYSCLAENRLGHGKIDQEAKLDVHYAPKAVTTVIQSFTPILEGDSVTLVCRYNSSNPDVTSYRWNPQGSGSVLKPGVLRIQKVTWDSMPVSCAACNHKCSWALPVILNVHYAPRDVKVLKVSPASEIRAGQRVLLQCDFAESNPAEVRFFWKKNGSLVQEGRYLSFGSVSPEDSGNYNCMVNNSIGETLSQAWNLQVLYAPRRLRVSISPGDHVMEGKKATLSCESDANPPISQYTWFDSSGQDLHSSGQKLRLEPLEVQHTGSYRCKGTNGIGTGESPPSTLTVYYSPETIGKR

Please look up its Kd: C#CCOCCCCCCO[C@]1(C(=O)O)C[C@H](O)[C@@H](NC(=O)C(C)O)[C@H]([C@H](O)[C@H](O)CNC(=O)Cc2ccc(Cl)cc2)O1 (some centres unmarked)
1000 to 10000 nM

Please look up its Kd: CC(=O)NCCOCCOCCOCCOCCn1cc(CCCCCCO[C@]2(C(=O)O)C[C@H](O)[C@@H](NC(=O)CO)[C@H]([C@H](O)[C@H](O)CNC(=O)Cc3ccc(C(F)F)cc3)O2)nn1
< 1000 nM

Please look up its Kd: C#CCOCCOCCO[C@]1(C(=O)O)C[C@H](O)[C@@H](NC(=O)CO)[C@H]([C@H](O)[C@H](O)CNC(=O)Cc2ccc(-c3ccccc3)cc2O)O1
1000 to 10000 nM

Please look up its Kd: C#CCCOc1ccc(CS[C@]2(C(=O)O)C[C@H](O)[C@@H](NC(=O)CO)[C@H]([C@H](O)[C@H](O)CNC(=O)Cc3cccc(O)c3)O2)cc1
1000 to 10000 nM

Please look up its Kd: CC(=O)NCCOCCOCCOCCOCCn1cc(COCCCCCCO[C@]2(C(=O)O)C[C@H](O)[C@@H](NC(=O)CO)[C@H]([C@H](O)[C@H](O)CNC(=O)Cc3ccc(C(F)F)cc3)O2)nn1
< 1000 nM
